The reported numbers originate from paper PMC12040169.

Assay: in vitro
Parameters: Viability of infected HeLa host cells, resazurin conversion, bulk resorufin fluorescence relative to DMSO
Details: human, hela cells; bulk resorufin, mean of 2
PROPERTY_MEASURED: viability at 28.5 h, 10 µM (%)
Just the number please, in %, no unit attached.

Prompt line: Return viability at 28.5 h, 10 µM for the following compound: CC(=O)NC[C@H]1CN(c2ccc(C#N)c(C)c2)C(=O)O1
Response line: 89.8

Prompt line: Return viability at 28.5 h, 10 µM for the following compound: C/C(=N\Nc1nnc2c(n1)[nH]c1ccccc12)c1ccccn1
Response line: 70.2

Prompt line: Return viability at 28.5 h, 10 µM for the following compound: CC(C)(CN)CN(Cc1ccccc1Br)C(=O)NC(c1ccccc1)c1ccccc1 [CBK002488C]
Response line: 90

Prompt line: Return viability at 28.5 h, 10 µM for the following compound: O=[N+]([O-])c1cc2c(cc1C(Nc1ccccn1)c1cc(Cl)c3cccnc3c1O)OCO2 (stereo not drawn)
Response line: 93.2

Prompt line: Return viability at 28.5 h, 10 µM for the following compound: Cc1cc(Br)ccc1C(=O)NCCc1c[nH]c2ccc(Cl)cc12
Response line: 108

Prompt line: Return viability at 28.5 h, 10 µM for the following compound: c1ccc(-c2nnc3ccccc3c2N2CCNCC2)cc1
Response line: 105

Prompt line: Return viability at 28.5 h, 10 µM for the following compound: O=C(Nc1ccccc1N1CCCNCC1)c1ccc2ccccc2c1 [CBK038927T]
Response line: 116

Prompt line: Return viability at 28.5 h, 10 µM for the following compound: O=S(=O)(Nc1nccs1)c1ccc(Nc2ncnc3ccccc23)cc1 [CBK269487C]
Response line: 86.3

Prompt line: Return viability at 28.5 h, 10 µM for the following compound: FC(F)(F)CCN1CCC2(CC1)NCCc1c2[nH]c2ccc(Cl)cc12
Response line: 108
